# study.system: HLA-A*68:01
# experimental.details: IEDB peptide-MHC binding, purified MHC/competitive/radioactivity; filed as Kd, often an IC50 or EC50 that approximates it; bounds were set here for any values at or beyond the usual limits of such assays
# assay.conditions: source organism: Plasmodium falciparum 3D7
readout.kind: Kd

IIRLHSDASK ≥ 10 µM

Ask | Query (sequence): `ALLACAGLAY` ; field requested: Kd
Reply | ≥ 10 µM

Ask | Sample `RLHSDASKNK` — what was its Kd?
Reply | ≥ 10 µM

Ask | Could you tell me which Kd is on file for `SLLSTNLPY` ?
Reply | ≥ 10 µM

Ask | Which measured Kd value corresponds to `LLACAGLAY` ?
Reply | 2.5 µM
